Measured MIC of individual entries
Test system: C. difficile 4118 (CD4118, ATCC BAA-1870, BI/NAP1/027)
assay-procedure: MIC by broth microdilution against C. difficile 4118
Format: cell-based, Clostridium difficile
test-conditions: Clostridioides difficile, ATCCBAA1870; Table 1; strain 4118; 20-24 h, 37° C.; read-out: MIC C. difficile 4118
Hey, just the number and the unit after it is fine.

The following compounds have reported results that may help.
[[record]]
compound = "Cc1cc(C(C#N)c2ccc(Cl)cc2)c(Cl)cc1NC(=O)c1cc(I)cc(I)c1O (stereo not shown) [Closantel, reference compound]"
result = "0.25 µg/mL"

[[record]]
compound = "O=C(Nc1ccc([N+](=O)[O-])cc1Cl)c1cc(Cl)ccc1O [Niclosamide, niclosamide]"
result = "4 µg/mL"

[[record]]
compound = "O=C(Nc1ccc(Oc2ccc(Cl)cc2)cc1)c1cc(Cl)cc(Cl)c1O [Compound 8]"
result = "0.06 µg/mL"


Now examine the next entry.
According to the records, this compound Cc1ncc([N+](=O)[O-])n1CCO [Metronidazole, metronidazole, reference compound] displays MIC of 0.25 µg/mL

These data points were gathered from patent US10792272B2.
